Each item that follows carries a reported residual activity.
Molecular target: PRKCE (human)
Assay: radiometric filter-binding kinase assay, Kinase HotSpot
Settings: compound 0.5 µM; ATP 10 µM
Numeric answer only, unit % assumed.

Solved entries (count: 3):
{"query smiles": "Cc1nc2cc3nc(-c4cccs4)cnc3cc2n1C", "unit of measure": "%", "residual activity": 108}
{"query smiles": "O=C1Cc2c([nH]c3ccc(Br)cc23)-c2ccccc2N1", "unit of measure": "%", "residual activity": 96.9}
{"query smiles": "COc1cc2ncnc(N3CCN(C(=O)Nc4ccc(Oc5ccccc5)cc4)CC3)c2cc1OC", "unit of measure": "%", "residual activity": 106}

Any idea what residual activity was measured for O=C(O)/C=C/c1cc(Br)c(Br)c(Br)c1Br ? 88.6

What residual activity value was documented for this molecule, CC(C)c1nn(-c2c(Cl)cccc2Cl)c2nc(Cc3ccc(OCCO)cc3)nc(O)c12 ? 90.5

The values you see were collected from the kinase profiling compilation of Christmann-Franck et al. (2016).
